- System: astro (control astrocytes)
- procedure summary: Drug repurposing screens with cells derived from glioblastoma tumor samples (AID 1345199); further: nearly all actives have a fitted effect of over 40% in size
- applied conditions: viability, ATP luminescence, 48 h; series mostly up to 45.9 µM
Results filed as inconclusive are left out. The source made the active and inactive calls. The call rests on the fitted dose curve; in most records, active means well fitted inhibition curve with a large enough effect; inconclusive means small, poorly fitted or top-dose-only effect; inactive means flat fitted curve, though single readings scatter.
Classes used: Y (active), N (inactive)

| mol | assigned category |
| --- | --- |
| CCOCCn1c(N2CCCN(C)CC2)nc2ccccc21 | N |
| CO[C@H]1C=CO[C@@]2(C)Oc3c(C)c(O)c4c(O)c(c(/C=N/N5CCN(C)CC5)c(O)c4c3C2=O)NC(=O)/C(C)=C\C=C[C@H](C)[C@H](O)[C@@H](C)[C@@H](O)[C@@H](C)[C@H](OC(C)=O)[C@@H]1C | Y |
| CCN1/C(=C/C=C/c2sc3ccccc3[n+]2CC)Sc2ccccc21 | Y |
| Cc1cccc(C)c1NC(=O)CN1CCCCCC1 | N |
| N=C(N)N1CCc2ccccc2C1 | N |

====

Catalogue of activity, negative = inhibition values
- procedure summary: qHTS profiling for inhibitors of Plasmodium falciparum proliferation (AID 504749); further: nearly all actives have a fitted effect of over 60% in size;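 on activity, negative = inhibition: 0% = DMSO vehicle and full inhibition = artemisinin control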
- applied conditions: P. falciparum in erythrocytes, SYBR Green DNA, 72 h; at 12.8 µM (top of the series); parasite line A
Records with an inconclusive call do not appear.
value kind: activity, negative = inhibition (%)

| compound | unit abbrev | result value |
| --- | --- | --- |
| O=C(O)CCC(=O)Nc1ccc(S(=O)(=O)Nc2nccs2)cc1 | % | 14.2 |
| CCCCNc1ccc(C(=O)OCCOCCOCCOCCOCCOCCOCCOCCOCCOC)cc1 | % | -21.5 |
| COc1cc(NS(=O)(=O)c2ccc(N)cc2)ncn1 | % | 3.14 |
| CCCCc1cc2ccccc2c(OCCN(C)C)n1 | % | 8.06 |
| CC(C)(C)NC[C@H](O)COc1cccc2c1CCCC2=O | % | 5.04 |
| O=C1C(CCS(=O)c2ccccc2)C(=O)N(c2ccccc2)N1c1ccccc1 (stereo unspecified) | % | -4.48 |
| Nc1ccc(C(=O)NCC(=O)O)cc1 | % | 7.06 |
| NS(=O)(=O)c1cc(C(=O)O)cc(N2CCCC2)c1Oc1ccccc1 | % | 5.58 |
| CCCc1ncc(C[n+]2ccccc2C)c(N)n1 | % | 11.9 |
| CN1CCC(OC(c2ccccc2)c2ccccc2)CC1 | % | -11.2 |
| CCOC(=O)Nc1ccc2c(c1)N(C(=O)CCN1CCOCC1)c1ccccc1S2 | % | 5.76 |

====

- procedure summary: qHTS of pediatric cancer cell lines to identify multiple opportunities for drug repurposing: Primary screen for MG 63 (6-TG R) cells (AID 1347105); further: nearly all actives have a fitted effect of over 50% in size; further: potency means the concentration at half of the fitted maximal effect
- applied conditions: MG 63 (6-TG R) viability, CellTiter-Glo, 48 h; series mostly up to 46 µM
Results filed as inconclusive are left out. Active and inactive are the calls of the source. Calls follow the shape of the dose curve; as a rule, active = well fitted cell-killing curve with a large enough effect; inconclusive = small, poorly fitted or top-dose-only effect; inactive = no such curve, though single readings can be large or run the other way.

| compound | Potency |
| --- | --- |
| C#C[C@]1(OC(C)=O)CC[C@H]2[C@@H]3CCC4=C/C(=N/O)CC[C@@H]4[C@H]3CC[C@@]21CC | inactive |
| CC(=O)Oc1ccc(C)cc1 | inactive |
| Cc1ccc2c(Br)cc(Br)c(O)c2n1 | 13.3 µM (active) |
| CN1CCN(C2=Nc3ccccc3Sc3ccc(Cl)cc32)CC1 | inactive |
| CC(=O)Nc1ccc(OC(=O)c2ccccc2OC(C)=O)cc1 | inactive |
| CCCCCCCCCCCCCCC[C@H](O)[C@@H](N)CO | inactive |
| CCCCCCCCNC(C)C(O)c1ccc(SC(C)C)cc1 (stereo not drawn) | 26.6 µM (active) |
| CCNC(=O)NCc1cccc(Cl)c1 | inactive |
| O=C1C(CCS(=O)c2ccccc2)C(=O)N(c2ccccc2)N1c1ccccc1 (stereo not drawn) | inactive |
| CNCCc1ccccn1 | inactive |
| CCN(CC)CCNC(=O)c1cc(Br)c(N)cc1OC | inactive |
| c1ccc(-c2nc[nH]c2-c2ccccc2)cc1 | inactive |
| CC(=O)Nc1ccc(CC(=O)O)cc1 | inactive |

====

- Test system: ECU
- procedure summary: qHTS profiling for inhibitors of Plasmodium falciparum proliferation (AID 504749); further: nearly all actives have a fitted effect of over 60% in size; further: potency means the concentration at half of the fitted maximal effect
- applied conditions: P. falciparum in erythrocytes, SYBR Green DNA, 72 h; series mostly up to 28.7 µM
- Description: NIH National Institute of Allergy and Infectious Diseases [NIAID] NIH Chemical Genomics Center [NCGC] […] Because mature erythrocytes lack DNA, only Plasmodium-derived DNA is detected. NCGC Assay Protocol Summary: The SYBR Green viability assay was adapted from a method described previously (Plouffe et al., 2008). […] The following morning, fluorescence intensity at 485(14) nm excitation and 535(25) nm emission wavelengths was measured on an EnVision (Perkin Elmer) plate reader. […]
Inconclusive results are not listed. Activity calls are given as the source filed them. Calls come from the whole dose curve; as a rule, active = well fitted inhibition curve with a large enough effect; inconclusive = small, poorly fitted or top-dose-only effect; inactive = flat fitted curve, though single readings scatter.

| compound | test system | Potency |
| --- | --- | --- |
| CCCCCCCCCCCCCC[N+](C)(C)Cc1ccccc1 | ECU | 7.08 µM (active) |
| CCN1/C(=C/C=C/c2sc3ccccc3[n+]2CC)Sc2ccccc21 | ECU | 0.224 µM (active) |
| O=C(Nc1ccc([N+](=O)[O-])cc1)Nc1ccc([N+](=O)[O-])cc1 | ECU | inactive |
| N#CCC(=O)NN | ECU | inactive |
| COc1ccc(CN(CCN(C)C)c2ncccn2)cc1 | ECU | inactive |
| OC1C(O)C(O)C(O)C(O)C1O (stereo not drawn) | ECU | inactive |
| CCOC(=O)c1c(N)sc2c1CCN(Cc1ccccc1)C2 | ECU | 7.08 µM (active) |
| CO[C@]12C[C@@H](COC(=O)c3cncc(Br)c3)CN(C)[C@@H]1Cc1cn(C)c3cccc2c13 | ECU | inactive |
| CCCCCCCCCCCCSCCOCCO | ECU | inactive |
| CCN(CC)CCNc1ccc(CO)c2sc3ccccc3c(=O)c12 | ECU | 0.708 µM (active) |
| NC(=S)N/N=C/c1cccnc1 | ECU | inactive |
| Cc1cc(C)cc(OCC2CNC(=O)O2)c1 (stereo not drawn) | ECU | inactive |
| COc1ccccc1N1CCN(CCCCNC(=O)c2ccc(-c3ccc(C(C)=O)cc3)cc2)CC1 | ECU | inactive |
| CN1CCC[C@@H]1CCO[C@](C)(c1ccccc1)c1ccc(Cl)cc1 | ECU | inactive |
| CCOc1ccccc1C(N)=O | ECU | inactive |
| Nc1ccc(S(=O)(=O)Nc2cnc3ccccc3n2)cc1 | ECU | inactive |
| CC(=O)Nc1ccc(S(=O)(=O)Nc2ccc([N+](=O)[O-])cc2)cc1 | ECU | inactive |
| CN(C)C(=O)Nc1ccc(Cl)c(Cl)c1 | ECU | inactive |
| CC(=O)OC[C@H]1O[C@@H](n2ncc(=O)[nH]c2=O)[C@H](OC(C)=O)[C@@H]1OC(C)=O | ECU | inactive |
| CCC(C(=O)OCCOCCN(CC)CC)c1ccccc1 (stereo not drawn) | ECU | inactive |
| C[N+]1(CC2COC(c3ccccc3)(C3CCCCC3)O2)CCCCC1 (stereo not drawn) | ECU | 4.47 µM (active) |
| CN1CCC(OC(c2ccccc2)c2ccccc2)CC1 | ECU | inactive |
| CCNC(=O)/C=C/c1cccc(Br)c1 | ECU | inactive |
| NC(N)=NN=C(/C=C/c1ccc([N+](=O)[O-])o1)/C=C/c1ccc([N+](=O)[O-])o1 | ECU | 12.6 µM (active) |
| C=C[C@@]1(C)CC(=O)[C@]2(O)[C@@]3(C)[C@@H](O)CCC(C)(C)[C@@H]3[C@H](O)[C@H](OC(C)=O)[C@@]2(C)O1 | ECU | inactive |
| CN1CCN(c2cc3c(cc2F)c(=O)c(C(=O)O)cn3-c2ccc(F)cc2)CC1 | ECU | inactive |
| C[N+]1(C)CCC(=C(c2ccccc2)c2ccccc2)CC1 | ECU | inactive |
| CN(C)CCC[C@@]1(c2ccc(F)cc2)OCc2cc(C#N)ccc21 | ECU | inactive |
| O=C(CCN1CCN2CCCC2C1)N1c2ccccc2Sc2ccc(Cl)cc21 (stereo not drawn) | ECU | 14.1 µM (active) |
| N=C(N)N1CCc2ccccc2C1 | ECU | inactive |
| O=C(O)CCNC(=O)c1ccccc1 | ECU | inactive |
| CN1CCN(C2=Nc3cc(F)ccc3Cc3ccccc32)CC1 | ECU | inactive |
| COc1ccc(CCN(C)CCCN2CCc3cc(OC)c(OC)cc3CC2=O)cc1OC | ECU | inactive |
| Cc1c[nH]c2ccccc12 | ECU | inactive |
| CCCCNC(=O)NS(=O)(=O)c1ccc(N)cc1 | ECU | inactive |
| CCN(CC)CCOC(=O)C1(c2ccccc2)CCCC1 | ECU | inactive |
| CC(C)=CCOc1ccc(/C=C/C(=O)c2ccc(OCC=C(C)C)cc2OCC(=O)O)cc1 | ECU | inactive |
| O=C(c1ccc(F)cc1)C1CCN(CCn2c(=S)[nH]c3ccccc3c2=O)CC1 | ECU | 4.47 µM (active) |
| O=C(O)c1ccc(S(=O)(=O)N(Cl)Cl)cc1 | ECU | inactive |
| CC(C)(C)NC[C@H](O)COc1cccc2c1CCCC2=O | ECU | inactive |
| CCOc1ccccc1OCCN[C@H](C)Cc1ccc(OC)c(S(N)(=O)=O)c1 | ECU | inactive |
| Oc1c(Cl)cc(Cl)c(Cl)c1Cc1c(O)c(Cl)cc(Cl)c1Cl | ECU | 12.6 µM (active) |
| CCCCNc1ccc(C(=O)OCCOCCOCCOCCOCCOCCOCCOCCOCCOC)cc1 | ECU | inactive |
| O=C(O)Cc1csc(-c2ccc(Cl)cc2)n1 | ECU | inactive |
| CCCCCCCCCCCCCCCC(=O)O | ECU | inactive |
| Cn1c(=O)c2[nH]c(Br)nc2n(C)c1=O | ECU | inactive |
| CC(C)NCC(O)c1ccc2ccccc2c1 (stereo not drawn) | ECU | 3.98 µM (active) |
| CCCN(CCc1cccs1)[C@H]1CCc2c(O)cccc2C1 | ECU | 2.82 µM (active) |

Data origin, for the record: PubChem BioAssay (NCATS)
